TEST SYSTEM: BAP1 (UniProt Q92560)
Sequence (Q92560 whole entry, the tested form may be a part): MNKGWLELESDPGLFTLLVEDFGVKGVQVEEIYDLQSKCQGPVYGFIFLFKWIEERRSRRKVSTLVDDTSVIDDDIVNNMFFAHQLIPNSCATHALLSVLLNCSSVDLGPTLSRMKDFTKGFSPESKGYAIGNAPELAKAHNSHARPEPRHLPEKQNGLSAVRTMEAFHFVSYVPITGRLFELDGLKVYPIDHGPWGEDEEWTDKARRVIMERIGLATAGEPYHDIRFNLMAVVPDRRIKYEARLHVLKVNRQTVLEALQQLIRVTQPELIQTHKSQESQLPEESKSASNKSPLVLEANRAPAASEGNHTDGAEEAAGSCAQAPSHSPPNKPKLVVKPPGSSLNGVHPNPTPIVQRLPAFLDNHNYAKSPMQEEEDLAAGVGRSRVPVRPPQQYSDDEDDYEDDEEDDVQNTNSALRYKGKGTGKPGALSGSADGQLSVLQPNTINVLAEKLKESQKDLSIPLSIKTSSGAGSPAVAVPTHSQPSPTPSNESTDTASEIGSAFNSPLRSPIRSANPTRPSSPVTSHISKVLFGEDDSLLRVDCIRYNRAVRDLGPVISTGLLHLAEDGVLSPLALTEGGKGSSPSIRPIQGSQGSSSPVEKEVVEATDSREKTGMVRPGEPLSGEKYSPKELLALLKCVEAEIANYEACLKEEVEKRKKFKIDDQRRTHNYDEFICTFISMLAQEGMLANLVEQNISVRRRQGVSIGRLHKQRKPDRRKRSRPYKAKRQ
TEST METHOD NOTES: log2 ratio of Biotin-Ahx-Ub-VS probe labelling (fragment/DMSO); higher = less target engagement (more negative = stronger competition), active = hit call of the paper (q ≤ 0.05, log2 ratio ≤ -1)
ASSAY CONTEXT: compound concentration: 200 uM; treatment time: 3 h
Attribute: log2 ratio of Biotin-Ahx-Ub-VS probe labelling
MEASURED ATTRIBUTE: log2 ratio of Biotin-Ahx-Ub-VS probe labelling

MOLECULE: O=C(CCl)Nc1ccccc1C(F)(F)F
ENDPOINT RESULT: -2.61
//
MOLECULE: Cc1ccc2nnc(CNC(=O)CCl)n2c1
ENDPOINT RESULT: -1.05
//
MOLECULE: O=C(CCl)NC1CCC2(CC1)OCCO2
ENDPOINT RESULT: -0.944
//
MOLECULE: O=C(CCl)N(Cc1ccsc1)C1CC1
ENDPOINT RESULT: -0.841
//
MOLECULE: Cc1ccc(N2CCC(NC(=O)CCl)C2=O)cc1 (stereo unspecified)
ENDPOINT RESULT: -2.46
//
MOLECULE: O=C(CCl)NCCc1ccc(F)cc1
ENDPOINT RESULT: -1.07
//
MOLECULE: CS(=O)(=O)c1ccc(CNC(=O)CCl)cc1
ENDPOINT RESULT: -3.17
//
MOLECULE: O=C(CCl)NCC(=O)N1CCCC1
ENDPOINT RESULT: -0.409
//
MOLECULE: CN(C)S(=O)(=O)c1ccccc1CNC(=O)CCl
ENDPOINT RESULT: -1.09
//
MOLECULE: Cl.O=C(CCl)N1CCC(n2nc3ccccc3n2)CC1
ENDPOINT RESULT: -2.08
//
MOLECULE: Cc1ccc(N(C(=O)CCl)C2C=CS(=O)(=O)C2)cc1 (stereo unspecified)
ENDPOINT RESULT: -0.0645
//
MOLECULE: O=C(CCl)N[C@H]1CC[C@@H](CO)CC1
ENDPOINT RESULT: -1.34
//
MOLECULE: Cl.Cn1ncc2c1CCCC2NC(=O)CCl (stereo unspecified)
ENDPOINT RESULT: -0.894
//
MOLECULE: Cc1ccc(CC(CO)CNC(=O)CCl)cc1 (stereo unspecified)
ENDPOINT RESULT: -3.74
//
MOLECULE: Cl.Cn1c(CNC(=O)CCl)nc2cccnc21
ENDPOINT RESULT: -1.32
//
MOLECULE: CC1(NC(=O)CCl)CCS(=O)(=O)C1 (stereo unspecified)
ENDPOINT RESULT: -1.37
//
MOLECULE: Cc1ccc(C)c(NC(=O)CCl)c1
ENDPOINT RESULT: -3.51
//
MOLECULE: CC(NC(=O)CCl)c1csc(-c2ccccc2)n1.Cl (stereo unspecified)
ENDPOINT RESULT: -3.84
//
MOLECULE: Cc1noc(N2CCN(C(=O)CCl)CC2)n1.Cl
ENDPOINT RESULT: -0.867
//
MOLECULE: Cl.O=C(CCl)N1CCn2ncc(O)c2C1
ENDPOINT RESULT: -2.39
//
MOLECULE: CC(NC(=O)CCl)c1cnn(C2CC2)c1 (stereo unspecified)
ENDPOINT RESULT: -2.22

* * *

Parameter log2 ratio of Biotin-Ahx-Ub-VS probe labelling: see the listing below.
TEST SYSTEM: USP5 (UniProt P45974)
Sequence (P45974 whole entry, the tested form may be a part): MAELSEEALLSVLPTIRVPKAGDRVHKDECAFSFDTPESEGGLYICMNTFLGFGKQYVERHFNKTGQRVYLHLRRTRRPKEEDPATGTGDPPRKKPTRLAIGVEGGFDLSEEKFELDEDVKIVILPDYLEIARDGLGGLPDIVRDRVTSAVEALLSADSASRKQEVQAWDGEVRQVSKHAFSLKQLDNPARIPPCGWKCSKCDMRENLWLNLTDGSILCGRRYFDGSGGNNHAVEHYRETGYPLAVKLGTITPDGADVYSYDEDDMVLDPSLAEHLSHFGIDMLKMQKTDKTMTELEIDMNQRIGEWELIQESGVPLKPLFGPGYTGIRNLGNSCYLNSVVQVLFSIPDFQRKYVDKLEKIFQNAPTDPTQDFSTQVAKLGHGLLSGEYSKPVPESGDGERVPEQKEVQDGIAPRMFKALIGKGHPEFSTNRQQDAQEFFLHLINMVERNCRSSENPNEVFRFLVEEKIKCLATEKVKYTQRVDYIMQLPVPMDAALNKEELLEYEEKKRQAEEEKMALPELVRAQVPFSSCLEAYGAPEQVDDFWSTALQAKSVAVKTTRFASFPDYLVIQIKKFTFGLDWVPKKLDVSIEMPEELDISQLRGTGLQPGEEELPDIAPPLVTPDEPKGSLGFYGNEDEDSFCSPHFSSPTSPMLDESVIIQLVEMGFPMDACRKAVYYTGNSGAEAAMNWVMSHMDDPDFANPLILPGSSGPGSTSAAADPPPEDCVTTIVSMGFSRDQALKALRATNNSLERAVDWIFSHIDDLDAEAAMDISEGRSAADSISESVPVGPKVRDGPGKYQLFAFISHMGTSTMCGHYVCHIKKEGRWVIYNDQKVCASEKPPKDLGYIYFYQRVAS
TEST METHOD NOTES: log2 ratio of Biotin-Ahx-Ub-VS probe labelling (fragment/DMSO); higher = less target engagement (more negative = stronger competition), active = hit call of the paper (q ≤ 0.05, log2 ratio ≤ -1)
ASSAY CONTEXT: compound concentration: 200 uM; treatment time: 3 h
MEASURED ATTRIBUTE: log2 ratio of Biotin-Ahx-Ub-VS probe labelling

COMPOUND: Cc1ccc2nnc(CNC(=O)CCl)n2c1
ENDPOINT RESULT: 0.114 (inactive)

COMPOUND: Cl.Cn1nccc1C(NC(=O)CCl)c1ccccc1 (stereo not drawn)
ENDPOINT RESULT: 0.239 (inactive)

COMPOUND: O=C(CCl)N1CCC2(CCC(O)CC2)CC1
ENDPOINT RESULT: 0.218 (inactive)

COMPOUND: Cc1cccnc1NC(=O)C1CCN(C(=O)CCl)CC1.Cl
ENDPOINT RESULT: -0.0361 (inactive)

COMPOUND: O=C(CCl)NC1CCCCNC1=O (stereo not drawn)
ENDPOINT RESULT: -0.327 (inactive)

COMPOUND: CN(C)S(=O)(=O)c1ccccc1CNC(=O)CCl
ENDPOINT RESULT: 0.419 (inactive)

COMPOUND: O=C(CCl)NC1CCOc2ccccc21 (stereo not drawn)
ENDPOINT RESULT: -0.575 (inactive)

COMPOUND: Cc1cccc(C(CNC(=O)CCl)N2CCOCC2)c1.Cl (stereo not drawn)
ENDPOINT RESULT: -0.22 (inactive)

* * *

Quick reference for log2 ratio of Biotin-Ahx-Ub-VS probe labelling among some compounds
TEST SYSTEM: USP7 (UniProt Q93009)
Sequence (Q93009 whole entry, looked up, the tested form may be a part): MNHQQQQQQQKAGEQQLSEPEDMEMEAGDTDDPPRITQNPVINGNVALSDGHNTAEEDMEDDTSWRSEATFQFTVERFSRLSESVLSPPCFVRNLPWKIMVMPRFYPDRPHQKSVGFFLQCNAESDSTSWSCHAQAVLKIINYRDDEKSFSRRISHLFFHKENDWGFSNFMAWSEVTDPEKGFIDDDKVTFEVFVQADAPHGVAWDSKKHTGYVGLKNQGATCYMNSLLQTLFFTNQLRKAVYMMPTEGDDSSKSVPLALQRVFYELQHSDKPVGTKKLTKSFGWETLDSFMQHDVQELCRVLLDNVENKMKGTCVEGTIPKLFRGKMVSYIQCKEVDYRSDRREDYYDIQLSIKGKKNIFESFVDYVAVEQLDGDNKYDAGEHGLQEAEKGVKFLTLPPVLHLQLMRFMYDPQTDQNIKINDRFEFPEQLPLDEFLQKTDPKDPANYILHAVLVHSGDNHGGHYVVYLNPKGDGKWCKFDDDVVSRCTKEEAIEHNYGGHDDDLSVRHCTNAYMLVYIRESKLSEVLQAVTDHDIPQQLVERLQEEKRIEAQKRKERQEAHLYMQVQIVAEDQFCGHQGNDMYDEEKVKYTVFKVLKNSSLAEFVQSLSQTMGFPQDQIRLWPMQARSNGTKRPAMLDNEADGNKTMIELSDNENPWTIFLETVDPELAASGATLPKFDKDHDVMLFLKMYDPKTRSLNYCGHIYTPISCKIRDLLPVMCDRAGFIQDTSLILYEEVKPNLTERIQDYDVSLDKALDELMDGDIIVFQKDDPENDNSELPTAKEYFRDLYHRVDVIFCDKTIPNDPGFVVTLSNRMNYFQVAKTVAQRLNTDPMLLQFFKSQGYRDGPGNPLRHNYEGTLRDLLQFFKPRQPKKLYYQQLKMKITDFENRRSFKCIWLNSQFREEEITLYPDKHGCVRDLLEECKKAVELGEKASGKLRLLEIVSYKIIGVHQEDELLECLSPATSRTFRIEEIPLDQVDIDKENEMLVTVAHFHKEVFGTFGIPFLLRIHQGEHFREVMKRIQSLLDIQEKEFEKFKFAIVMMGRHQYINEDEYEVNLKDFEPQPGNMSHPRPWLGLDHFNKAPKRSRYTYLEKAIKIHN
TEST METHOD NOTES: log2 ratio of Biotin-Ahx-Ub-VS probe labelling (fragment/DMSO); higher = less target engagement (more negative = stronger competition), active = hit call of the paper (q ≤ 0.05, log2 ratio ≤ -1)
ASSAY CONTEXT: compound concentration: 200 uM; treatment time: 3 h
MEASURED ATTRIBUTE: log2 ratio of Biotin-Ahx-Ub-VS probe labelling

COMPOUND: O=C(CCl)N1CCOC(c2cccc(F)c2)C1 (stereo not drawn)
TEST SYSTEM: USP7 (UniProt Q93009)
ENDPOINT RESULT: -0.705

COMPOUND: COc1ccc(-c2csc(NC(=O)CCl)n2)cc1
TEST SYSTEM: USP7 (UniProt Q93009)
ENDPOINT RESULT: -0.576

COMPOUND: N#Cc1ccc(Cl)cc1NC(=O)CCl
TEST SYSTEM: USP7 (UniProt Q93009)
ENDPOINT RESULT: -0.47

* * *

TEST SYSTEM: USP47 (UniProt Q96K76)
Sequence (Q96K76 whole entry, the tested form may be a part): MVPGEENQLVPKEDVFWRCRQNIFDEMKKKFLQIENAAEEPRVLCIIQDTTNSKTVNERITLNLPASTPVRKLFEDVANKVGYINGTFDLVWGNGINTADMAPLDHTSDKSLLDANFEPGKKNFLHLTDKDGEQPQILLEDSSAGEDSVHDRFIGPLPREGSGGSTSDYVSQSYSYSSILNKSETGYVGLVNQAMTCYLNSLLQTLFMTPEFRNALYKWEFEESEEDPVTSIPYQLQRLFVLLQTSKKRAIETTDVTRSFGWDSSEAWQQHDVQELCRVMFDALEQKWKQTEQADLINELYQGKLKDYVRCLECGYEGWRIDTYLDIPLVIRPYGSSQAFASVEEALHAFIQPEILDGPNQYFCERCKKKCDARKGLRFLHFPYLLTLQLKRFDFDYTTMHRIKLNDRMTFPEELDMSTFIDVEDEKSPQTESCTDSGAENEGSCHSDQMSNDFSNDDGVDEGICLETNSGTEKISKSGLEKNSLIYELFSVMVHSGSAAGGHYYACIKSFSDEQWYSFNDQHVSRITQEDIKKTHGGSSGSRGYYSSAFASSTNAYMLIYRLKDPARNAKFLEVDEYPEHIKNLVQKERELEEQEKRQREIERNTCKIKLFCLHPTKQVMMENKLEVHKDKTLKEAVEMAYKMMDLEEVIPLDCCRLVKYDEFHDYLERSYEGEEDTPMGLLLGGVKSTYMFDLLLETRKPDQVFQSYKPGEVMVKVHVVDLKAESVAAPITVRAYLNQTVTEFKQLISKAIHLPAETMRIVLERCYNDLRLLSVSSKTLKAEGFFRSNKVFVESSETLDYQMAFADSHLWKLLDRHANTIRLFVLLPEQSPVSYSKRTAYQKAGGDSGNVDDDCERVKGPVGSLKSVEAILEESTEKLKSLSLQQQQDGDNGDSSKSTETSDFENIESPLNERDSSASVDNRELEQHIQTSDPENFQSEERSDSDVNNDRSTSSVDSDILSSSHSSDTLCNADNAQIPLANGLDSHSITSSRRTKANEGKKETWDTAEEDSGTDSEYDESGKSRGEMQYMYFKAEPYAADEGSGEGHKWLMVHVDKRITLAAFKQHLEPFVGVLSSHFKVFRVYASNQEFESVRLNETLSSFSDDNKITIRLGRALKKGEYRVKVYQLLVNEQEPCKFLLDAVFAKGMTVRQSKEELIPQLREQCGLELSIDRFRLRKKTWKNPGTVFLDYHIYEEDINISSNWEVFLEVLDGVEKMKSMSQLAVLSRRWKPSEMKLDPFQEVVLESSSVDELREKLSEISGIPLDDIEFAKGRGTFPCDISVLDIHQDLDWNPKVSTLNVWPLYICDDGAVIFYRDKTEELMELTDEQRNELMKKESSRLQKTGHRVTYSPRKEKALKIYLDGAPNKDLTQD
TEST METHOD NOTES: log2 ratio of Biotin-Ahx-Ub-VS probe labelling (fragment/DMSO); higher = less target engagement (more negative = stronger competition), active = hit call of the paper (q ≤ 0.05, log2 ratio ≤ -1)
ASSAY CONTEXT: compound concentration: 200 uM; treatment time: 3 h
List of log2 ratio of Biotin-Ahx-Ub-VS probe labelling values.
MEASURED ATTRIBUTE: log2 ratio of Biotin-Ahx-Ub-VS probe labelling

MOLECULE: O=C(CCl)Nc1cc2c(cc1Cl)OCCCO2
ENDPOINT RESULT: -0.676
//
MOLECULE: O=C(CCl)N[C@H]1CC[C@@H](CO)CC1
ENDPOINT RESULT: -0.113
//
MOLECULE: Cc1conc1C1CN(C(=O)CCl)C1
ENDPOINT RESULT: -0.971
//
MOLECULE: CC(c1ccccc1)N(C)C(=O)CCl (configuration not stated)
ENDPOINT RESULT: 0.0295
//
MOLECULE: Cc1ncc2c(n1)CCN(C(=O)CCl)C2
ENDPOINT RESULT: 0.296
//
MOLECULE: N#Cc1ccccc1N1CCN(C(=O)CCl)CC1
ENDPOINT RESULT: -0.514
//
MOLECULE: N#Cc1cnn(-c2ccccc2)c1NC(=O)CCl
ENDPOINT RESULT: -0.263

* * *

Known log2 ratio of Biotin-Ahx-Ub-VS probe labelling of a selection of compounds
TEST SYSTEM: USP34 (UniProt Q70CQ2)
TEST METHOD NOTES: log2 ratio of Biotin-Ahx-Ub-VS probe labelling (fragment/DMSO); higher = less target engagement (more negative = stronger competition), active = hit call of the paper (q ≤ 0.05, log2 ratio ≤ -1)
ASSAY CONTEXT: compound concentration: 200 uM; treatment time: 3 h
MEASURED ATTRIBUTE: log2 ratio of Biotin-Ahx-Ub-VS probe labelling

COMPOUND: Cl.O=C(CCl)N1CCc2ncncc2C1
ENDPOINT RESULT: -0.136
//
COMPOUND: O=C(CCl)NCCC1=CCCCC1
ENDPOINT RESULT: 0.0934
//
COMPOUND: O=C(CCl)NC1CCS(=O)(=O)c2ccccc21 (stereo not given)
ENDPOINT RESULT: -0.0259
//
COMPOUND: Cl.O=C(CCl)N1CCn2cncc2C1
ENDPOINT RESULT: -0.401
//
COMPOUND: Cl.O=C(CCl)N1CC(c2ccc(Br)cn2)C1
ENDPOINT RESULT: -0.16
//
COMPOUND: O=C(CCl)N1CCCN(C(=O)c2ccc(Cl)cc2)CC1
ENDPOINT RESULT: -0.425
//
COMPOUND: CC(NC(=O)CCl)c1cnn(C2CC2)c1 (stereo not given)
ENDPOINT RESULT: -0.133
//
COMPOUND: Cl.O=C(CCl)NC1(c2ncccn2)CCC1
ENDPOINT RESULT: 0.0452
//
COMPOUND: O=C(CCl)N1CCC(C(=O)N2CCCC2)CC1
ENDPOINT RESULT: -0.0649
//
COMPOUND: O=C(CCl)NCc1ccc(N2CCOCC2)nc1
ENDPOINT RESULT: -0.0991
